Readings of CC50 at 48 h for the listed compounds
- ASSAY PROTOCOL: Toxicity to African green monkey kidney cells (Vero-E6), CCK-8, 48 hours
- MEASUREMENT CONTEXT: African green monkey
- Source text: • (1) Medicaments: experimental group, tannic acid; control group, Remdesivir (purchased from Shanghai TopScience Technology Co., Ltd.); • (2) Cell line: African green monkey kidney cells (Vero-E6 cells); • (3) Others: MEM medium; 96-well culture plate. 2. […] 3. Experimental results […]
PROPERTY NAME: CC50 at 48 h (µM)

>>> reported_measurement("O=C(OC[C@H]1O[C@@H](OC(=O)c2cc(O)c(O)c(OC(=O)c3cc(O)c(O)c(O)c3)c2)[C@H](OC(=O)c2cc(O)c(O)c(OC(=O)c3cc(O)c(O)c(O)c3)c2)[C@@H](OC(=O)c2cc(O)c(O)c(OC(=O)c3cc(O)c(O)c(O)c3)c2)[C@@H]1OC(=O)c1cc(O)c(O)c(OC(=O)c2cc(O)c(O)c(O)c2)c1)c1cc(O)c(O)c(OC(=O)c2cc(O)c(O)c(O)c2)c1")
23.5
>>> reported_measurement("CCC(CC)COC(=O)[C@H](C)N[P@](=O)(OC[C@H]1O[C@@](C#N)(c2ccc3c(N)ncnn23)[C@H](O)[C@@H]1O)Oc1ccccc1")
106

* * *

# maps each entry to its CC50
- ASSAY PROTOCOL: Toxicity to canine kidney epithelial cells (MDCK), cytopathic changes
- MEASUREMENT CONTEXT: dog
PROPERTY NAME: CC50 (µM)

>>> reported_measurement("O=C(OC[C@H]1O[C@@H](OC(=O)c2cc(O)c(O)c(OC(=O)c3cc(O)c(O)c(O)c3)c2)[C@H](OC(=O)c2cc(O)c(O)c(OC(=O)c3cc(O)c(O)c(O)c3)c2)[C@@H](OC(=O)c2cc(O)c(O)c(OC(=O)c3cc(O)c(O)c(O)c3)c2)[C@@H]1OC(=O)c1cc(O)c(O)c(OC(=O)c2cc(O)c(O)c(O)c2)c1)c1cc(O)c(O)c(OC(=O)c2cc(O)c(O)c(O)c2)c1 [Tannic acid, tannic acid]")
752
>>> reported_measurement("NC(=O)c1ncn([C@@H]2O[C@H](CO)[C@@H](O)[C@H]2O)n1 [Ribavirin]")
1310
